Test system: Leishmania donovani
Assay: Antileishmanial activity against Leishmania donovani promastigotes after 48 hrs by alamar blue assay
Type: functional, organism-based
Details: Leishmania donovani, 48 h
Overview of recorded IC90 for various molecules

molecule: C[C@H]1[C@@H](OCC[C@@H](CO[C@H]2O[C@@H]3O[C@@]4(C)CC[C@H]5[C@H](C)CC[C@@H]([C@H]2C)[C@@]35OO4)O[C@H]2O[C@@H]3O[C@@]4(C)CC[C@H]5[C@H](C)CC[C@@H]([C@H]2C)[C@@]35OO4)O[C@@H]2O[C@@]3(C)CC[C@H]4[C@H](C)CC[C@@H]1[C@@]24OO3
readout units: µM
IC90: 44.2
--
molecule: C[C@H]1[C@@H](OC[C@@H](O)[C@@H](O)CO[C@H]2O[C@@H]3O[C@@]4(C)CC[C@H]5[C@H](C)CC[C@@H]([C@H]2C)[C@@]35OO4)O[C@@H]2O[C@@]3(C)CC[C@H]4[C@H](C)CC[C@@H]1[C@@]24OO3 (relative stereo)
readout units: µM
IC90: 22.9
--
molecule: C[C@H]1[C@@H](OCc2cc(O)cc(O)c2)O[C@@H]2O[C@@]3(C)CC[C@H]4[C@H](C)CC[C@@H]1[C@@]24OO3
readout units: µM
IC90: 24.6
--
molecule: C[C@H]1[C@@H](OC[C@@H]2O[C@@H]2CO[C@H]2O[C@@H]3O[C@@]4(C)CC[C@H]5[C@H](C)CC[C@@H]([C@H]2C)[C@@]35OO4)O[C@@H]2O[C@@]3(C)CC[C@H]4[C@H](C)CC[C@@H]1[C@@]24OO3 (relative stereo)
readout units: µM
IC90: 47.1
--
molecule: C[C@H]1[C@@H](OCc2cc(O)cc(O[C@H]3O[C@@H]4O[C@@]5(C)CC[C@H]6[C@H](C)CC[C@@H]([C@H]3C)[C@@]46OO5)c2)O[C@@H]2O[C@@]3(C)CC[C@H]4[C@H](C)CC[C@@H]1[C@@]24OO3
readout units: µM
IC90: 32.7
--
molecule: C[C@H]1[C@@H](OCC(=O)CO)O[C@@H]2O[C@@]3(C)CC[C@H]4[C@H](C)CC[C@@H]1[C@@]24OO3
readout units: µM
IC90: 112

###

Test system: Leishmania donovani
Test: Antileishmanial activity against Leishmania donovani promastigotes after 48 hrs by alamar blue assay
Assay type: functional, organism-based
Conditions: Leishmania donovani, 48 h
log10 of IC90: recorded values
test readout: log10 of IC90 (log10 of the value in µM)

compound: C[C@H]1[C@@H](OCC(O)CO[C@H]2O[C@@H]3O[C@@]4(C)CC[C@H]5[C@H](C)CC[C@@H]([C@H]2C)[C@@]35OO4)O[C@@H]2O[C@@]3(C)CC[C@H]4[C@H](C)CC[C@@H]1[C@@]24OO3 (some centres undefined)
log10 of IC90: 1.68
--
compound: C[C@H]1[C@@H](OCC(=O)CO[C@H]2O[C@@H]3O[C@@]4(C)CC[C@H]5[C@H](C)CC[C@@H]([C@H]2C)[C@@]35OO4)O[C@@H]2O[C@@]3(C)CC[C@H]4[C@H](C)CC[C@@H]1[C@@]24OO3
log10 of IC90: 1.59
--
compound: N=C(N)c1ccc(OCCCCCOc2ccc(C(=N)N)cc2)cc1
log10 of IC90: 0.81
--
compound: C[C@H]1[C@@H](O[C@@H](CO[C@H]2O[C@@H]3O[C@@]4(C)CC[C@H]5[C@H](C)CC[C@@H]([C@H]2C)[C@@]35OO4)[C@H](O)CO)O[C@@H]2O[C@@]3(C)CC[C@H]4[C@H](C)CC[C@@H]1[C@@]24OO3
log10 of IC90: 1.47
--
compound: C=C[C@@H](CO[C@H]1O[C@@H]2O[C@@]3(C)CC[C@H]4[C@H](C)CC[C@@H]([C@H]1C)[C@@]24OO3)O[C@H]1O[C@@H]2O[C@@]3(C)CC[C@H]4[C@H](C)CC[C@@H]([C@H]1C)[C@@]24OO3
log10 of IC90: 1.80
--
compound: C[C@@H]1[C@H](O)[C@@H](C)/C=C/C=C/C=C/C=C/C=C/C=C/C=C/[C@H](O[C@@H]2O[C@H](C)[C@@H](O)[C@H](N)[C@@H]2O)C[C@@H]2O[C@](O)(C[C@@H](O)C[C@@H](O)[C@H](O)CC[C@@H](O)C[C@@H](O)CC(=O)O[C@H]1C)C[C@H](O)[C@H]2C(=O)O
log10 of IC90: -0.40
--
compound: C[C@H]1[C@@H](Oc2cccc(N[C@@H]3[C@H](C)O[C@@H]4O[C@@]5(C)CC[C@H]6[C@H](C)CC[C@@H]3[C@@]46OO5)c2)O[C@@H]2O[C@@]3(C)CC[C@H]4[C@H](C)CC[C@@H]1[C@@]24OO3
log10 of IC90: 1.79
--
compound: C[C@H]1[C@@H](OCC(CO[C@H]2O[C@@H]3O[C@@]4(C)CC[C@H]5[C@H](C)CC[C@@H]([C@H]2C)[C@@]35OO4)OS(C)(=O)=O)O[C@@H]2O[C@@]3(C)CC[C@H]4[C@H](C)CC[C@@H]1[C@@]24OO3 (some centres undefined)
log10 of IC90: 1.74
--
compound: C[C@H]1[C@@H](OCC[C@H](O)CO[C@H]2O[C@@H]3O[C@@]4(C)CC[C@H]5[C@H](C)CC[C@@H]([C@H]2C)[C@@]35OO4)O[C@@H]2O[C@@]3(C)CC[C@H]4[C@H](C)CC[C@@H]1[C@@]24OO3
log10 of IC90: 0.97
